# assayed_system: recombinant soluble homotrimeric HA of A/Netherlands/219/03 (H7N7) (Influenza A virus A/Netherlands/219/03(H7N7))
# protocol_text: HA microarray, BCC supernatant
# reported_conditions: remark: other sources report otherwise
Reported Trimeric HA Binding: RLU values follow for various binders
Report the value in RLU with no unit label.

Consider the worked cases shown below.
binder | readout_units | assay_result
TCN-544 (5082_A19) (antibody, V domains shown) VH: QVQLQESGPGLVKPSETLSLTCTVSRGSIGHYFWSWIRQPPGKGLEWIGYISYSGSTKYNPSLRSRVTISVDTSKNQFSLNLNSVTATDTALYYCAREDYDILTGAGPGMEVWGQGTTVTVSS VL: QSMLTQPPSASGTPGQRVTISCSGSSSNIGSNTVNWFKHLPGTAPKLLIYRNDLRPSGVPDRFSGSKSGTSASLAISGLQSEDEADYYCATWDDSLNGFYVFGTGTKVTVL | RLU | 1620
TCN-530 (5248_H10a) (antibody, V domains shown) VH: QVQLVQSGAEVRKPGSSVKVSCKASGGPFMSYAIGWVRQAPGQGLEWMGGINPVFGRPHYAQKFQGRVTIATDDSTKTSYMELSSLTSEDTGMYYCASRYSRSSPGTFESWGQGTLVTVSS VL: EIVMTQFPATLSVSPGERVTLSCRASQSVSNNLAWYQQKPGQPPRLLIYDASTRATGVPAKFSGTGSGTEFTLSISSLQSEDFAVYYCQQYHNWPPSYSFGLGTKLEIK | RLU | 2900

Task: Request the reported Trimeric HA Binding: RLU associated with TCN-543 (5081_G23) (antibody, V domains shown) VH: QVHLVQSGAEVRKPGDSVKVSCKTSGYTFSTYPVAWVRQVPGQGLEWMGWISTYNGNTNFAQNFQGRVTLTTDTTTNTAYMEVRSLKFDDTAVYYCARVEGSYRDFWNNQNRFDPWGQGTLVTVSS VL: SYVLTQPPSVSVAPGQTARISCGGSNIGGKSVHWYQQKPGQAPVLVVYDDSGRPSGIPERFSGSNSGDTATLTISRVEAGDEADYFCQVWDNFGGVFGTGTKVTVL
Output: 661

Hey, just so you know, these numbers are from patent US20150086555A1.
